Values were extracted from PubChem BioAssay AID2060496.

Test system: 276233-004-R-J1-PDC complex spheroid viability;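 note: spheroids exposed to drugs for seven days; 100% = DMSO vehicle control viability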
Experiment: Anticancer human tumor 276233-004-R-J1-PDC patient-derived colon adenocarcinoma cell line growth inhibition [GQUAD]
Settings: second compound 1 µM; first compound 0.000999 µM; active compounds read low
READOUT_LABEL: viability, T/C (%)
Give bare numbers, in %.

// known answers, use as guide
MOLECULE | ASSAY_TARGET | READING_UNIT | viability, T/C
CC[C@@]1(O)C(=O)OCc2c1cc1n(c2=O)Cc2cc3c(CN(C)C)c(O)ccc3nc2-1 + Cc1[nH]c2ccc(F)cc2c1-c1nc2c3cccnc3c3ncccc3c2[nH]1 | 276233-004-R-J1-PDC complex spheroid viability | % | 71.2
Cn1ncnc1[C@H]1c2n[nH]c(=O)c3cc(F)cc(c23)N[C@@H]1c1ccc(F)cc1 + Cc1cnc(CNC(=O)c2c(=O)c3ccc(N4CCCN(C)CC4)nc3n3c2sc2ccccc23)cn1 | 276233-004-R-J1-PDC complex spheroid viability | % | 70.3

Here is another molecule to look at.
Challenge: Record request: viability, T/C value, item Cc1[nH]c2ccccc2c1CCNCc1ccc(/C=C/C(=O)NO)cc1 + Cc1cnc(CNC(=O)c2c(=O)c3ccc(N4CCCN(C)CC4)nc3n3c2sc2ccccc23)cn1
Response given: 71.5
